B1: PTPN9 (parent)
chain: NKWTVQYNVSPLSWNVAVKFLMAR

- Variants of: B1
- run_description: protein stability index of a GFP-peptide fusion (GPS, HEK-293T) (PSI 1-6); higher = more stable;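 also: lentivirally expressed fusions sorted by FACS into six bins by GFP to DsRed ratio, PSI derived from sequencing read proportions per bin multiplied by bin number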
- test_conditions: c terminus: a fixed tail appended
Would you please tag the item rule met when its protein stability index is 2 or above, and rule not met when it is below?

NKWTVQYNVSPLSWNVAVKSLMAR [F20S]    rule met

Q: Check this variant for protein stability index at or above 2: NKWTVQYNVSPLSWNVDVKFLMAR [A17D]
Ans: rule not met

Q: Check this variant for protein stability index at or above 2: NKWTVQYNVSPLSWNVAKKFLMAR [V18K]
Ans: rule met
